B1: TPR 5TU (parent)
chain: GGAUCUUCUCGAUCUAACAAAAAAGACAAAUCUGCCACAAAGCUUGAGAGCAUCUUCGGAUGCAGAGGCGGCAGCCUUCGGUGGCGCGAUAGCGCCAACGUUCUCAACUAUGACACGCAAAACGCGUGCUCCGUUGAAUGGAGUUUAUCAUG

# Variants of: B1
# Assay summary: polymerase ribozyme fitness, log enrichment relative to wild type (log ratio); higher = more active; in vitro selection for triplet polymerase activity
Variants at the floor of the assay were thinned out.
Measurement type: polymerase ribozyme fitness (log ratio)

Q: What measured polymerase ribozyme fitness (log ratio) goes with A26C G59U A89C A113G C132G G141U ?
A: ≤ -4.2

Q: Note, next up: U53A G80C
A: ≤ -4.2

Q: Note, next up: A30C A41C C57A G62C G92A C131G
A: ≤ -4.2

Q: Note, next up: C14G A28U G50A A119C A147U
A: ≤ -4.2

Q: Note, next up: A30U G46U U55G C79A U101G C108G C116U A119G G136U
A: ≤ -4.2

Q: Note, next up: C8A C27U C76U
A: ≤ -4.2

Q: Note, next up: C8U C93A
A: ≤ -4.2

Q: Note, next up: U33A A115G U139G
A: ≤ -4.2

Q: Note, next up: A21G C54A G83U C87A C96U A122C
A: ≤ -4.2

Q: Note, next up: A22C A47C A73U G83U G84A C95U C103G C116U G140C
A: ≤ -4.2

Q: Note, next up: C14U G48U A52U A138C A142C U148G
A: ≤ -4.2

Q: Note, next up: A12U A89U G94U C108G C118U A120C A122C A137C
A: ≤ -4.2

Q: Note, next up: A24G C108U U148G
A: ≤ -4.2

Q: Note, next up: G50U U61A C93G C105U A107G
A: ≤ -4.2

Q: Note, next up: C75G A106C C108A
A: ≤ -4.2

Q: Note, next up: A12G C36A C69U C85G A89C A113U
A: ≤ -4.2

Q: Note, next up: U6G G11C C14U C93A
A: ≤ -4.2

Q: Note, next up: C5G C10G G92A C123U A138C G143A
A: ≤ -4.2

Q: Note, next up: A37C A49C G81A G92C A106G C108A A115U A137U G143U
A: ≤ -4.2

Q: Note, next up: A40U G68C C79U G84A C96A A138C
A: ≤ -4.2

Q: Note, next up: U55G G67C U78G G83U C93A U102A A121C
A: ≤ -4.2

Q: Note, next up: A22U G25C G48C A122U
A: ≤ -4.2

Q: Note, next up: C99A U146G
A: -1.41

Q: Note, next up: A73G G83C
A: -2.56

Q: Note, next up: C38A U61A C96G
A: -2.38

Q: Note, next up: C8U U33A C38U G62A
A: ≤ -4.2

Q: Note, next up: C43G C57A A60U G141C
A: -4.18

Q: Note, next up: C54G C95A C118G
A: -2.03

Q: Note, next up: G58A U101G C132G G133C A142C
A: -3.72

Q: Note, next up: C27A A28G C43A G58C C95U C105G
A: ≤ -4.2

Q: Note, next up: C27U C54U G58A A106G
A: -0.532

Q: Note, next up: U53G C54G C96G C114U
A: ≤ -4.2

Q: Note, next up: U44A G50A U77A U78A C93G A115C G133A G141A
A: -4.14

Q: Note, next up: A17G A26C C32U G59A C75U
A: ≤ -4.2

Q: Note, next up: C14G A20C G92C C125G
A: -3.88

Q: Note, next up: U55A C105A
A: -0.692

Q: Note, next up: U13G A37U U55A C57A C76U G86A U127C
A: ≤ -4.2

Q: Note, next up: A21U G34A G83C
A: -2.46

Q: Note, next up: A107U U109G
A: ≤ -4.2

Q: Note, next up: A37U A40C G68C G86U C95U G136A A137C
A: ≤ -4.2

Q: Note, next up: G46A A47C U53A C57U A107U G117A
A: ≤ -4.2

Q: Note, next up: U9C A40C U45A G65C C85A U111G A113U C118G
A: ≤ -4.2

Q: Note, next up: U4C G86A
A: -0.918

Hello, the source for this data is the RNAGym collection of RNA variant scans (doi:10.1073/pnas.2313332121), in case you need it.
